Data credit: PubChem BioAssay

# measurement_description: RAM signaling pathway blockade in yeast – S. cerevisiae, Pdr1DBD-CYC8 efflux-inhibited sensitized strain, primary screen (AID 1298);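 also: 0% = DMSO untreated cells without growth and 100% = 10 µM 1-NA-PP1 full growth; higher means more yeast growth rescued from 5-FOA killing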
# condition_label: S. cerevisiae cbk1-as DSE1-URA3 strain, 5-FOA growth OD615, 2 d; at 50 µM; stronger effect = higher value
Collected RAM network inhibition values appear next to each entry.
API: value field is a number in %; no unit string.

Field: example entries. Status: answers known.
INSERT INTO measurements (compound, reading) VALUES
  ('CCOC(=O)Cn1ncc(-c2ccccc2)c1N', 2.21),
  ('N#Cc1c2n(c(=O)[nH]c1=O)CCCCC2', 6.34),
  ('CSc1ccc(CN2CCC(O)CC2)cc1', 5.11);

Determine its reported RAM network inhibition: COc1ccc(-n2c(Cc3cccn3C)nnc2SCC(=O)Nc2ccc3c(c2)OCCO3)cc1
6.11

Provide measured RAM network inhibition value, entry: CCCCCOC(=O)NCC(O)c1ccccc1 (stereo unspecified)
5.59

Write down RAM network inhibition measured for item CCN(CC)S(=O)(=O)c1ccc2oc(C(=O)N3CCOCC3)c(C)c2c1
-0.22

Note RAM network inhibition for the compound shown: COc1ccc(N2Cc3ccccc3C2)cc1Cl
7.11

Return value of RAM network inhibition for input COc1ccc(N(CC(=O)Nc2cc(C)ccc2C)S(=O)(=O)c2c(C)nn(C)c2C)cc1 , no commentary.
7.15

Give RAM network inhibition for CC(C(=O)Oc1ccc2c(c1)OCO2)N1C(=O)c2ccccc2C1=O (stereo unspecified)
0.12

Supply reported RAM network inhibition belonging to this compound: CCOc1ccc(N(CC(=O)NCc2ccco2)S(=O)(=O)c2ccc(OC)c(OC)c2)cc1
2.74

Provide one value: measured RAM network inhibition of O=C(NCc1ccc2c(c1)OCO2)C1CCCN(S(=O)(=O)c2cccc3cccnc23)C1 (stereo unspecified)
5.25
